EXPERIMENTAL DETAILS: Drug concentration in brain tissues of rats, intravenous injection
Type: in vivo, SD rats
EXPERIMENTAL PARAMETERS: SD, brain/plasma, iv; rat, i.v. 2 mg/kg, 0.5 hour; read-out: Brain-to-blood ratio

{"COMPOUND": "C[C@@H]1CN(C(=O)[C@@H]2CN(C3CCOCC3)C[C@H]2c2ccc(F)cc2F)C[C@H](C)N1c1ccc(F)cc1 (single isomer, unassigned)", "Kp at 0.5 h": 7.8}

----------
EXPERIMENTAL DETAILS: Drug concentration in brain tissues of rats, intravenous injection
Assay type: in vivo, SD rats
EXPERIMENTAL PARAMETERS: SD, plasma, iv; rat, i.v. 2 mg/kg, 2 hours; read-out: Plasma drug concentration

{"COMPOUND": "C[C@@H]1CN(C(=O)[C@@H]2CN(C3CCOCC3)C[C@H]2c2ccc(F)cc2F)C[C@H](C)N1c1ccc(F)cc1 (single isomer, unassigned)", "concentration at 2 h, nM": 141}
